- Test system: SK-MEL-1;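 note: growth inhibition of human SK-MEL-1 cells, read out by a cell viability assay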
- procedure.text: cells
- Assay type: functional, cell-based, Homo sapiens
- protocol.conditions: Homo sapiens, SK-MEL-1
- Description: SANGER: Inhibition of human SK-MEL-1 cell growth in a cell viability assay.
Measured IC50 values are reported for all entries that follow.

compound	IC50
COc1cccc2c1C(=O)c1c(O)c3c(c(O)c1C2=O)C[C@@](O)(C(=O)CO)C[C@@H]3O[C@H]1C[C@H](N)[C@H](O)[C@H](C)O1 [DOXORUBICIN]	> 1.02 µM

Input CC[C@H](CO)Nc1nc(NCc2ccccc2)c2ncn(C(C)C)c2n1 [SELICICLIB] , output reported IC50.
> 16 µM

Input N[C@@H](CSC(c1ccccc1)(c1ccccc1)c1ccccc1)C(=O)O [S-TRITYL-L-CYSTEINE] , output reported IC50.
> 5.12 µM

Input COc1cc2c(Nc3ccc(NC(=O)c4ccccc4)cc3)ncnc2cc1OCCCN1CCOCC1 , output reported IC50.
> 4 µM
